Test system: sNF02.2
Assay: MPNST viability assay (6 days, MTT or AlamarBlue)
Type: cell-based
Details: cell viability, sNF02.2, 6 days of treatment
Experimental: Mycoplasma-free MPNST cell lines (see Table 1) were seeded in 50 μl/well of complete medium (DMEM high glucose supplemented with 1× GlutaMAX™, 1× sodium pyruvate and 10% fetal bovine serum (FBS), Thermo Fisher) in 96-well plates at the optimal cell density to ensure log-phase growth throughout the duration of the experiment (see Table 1). […] Background was calculated as the mean of the values of medium-only controls and subtracted from each data point. […]
PROPERTY MEASURED: EC50 (nM)
One number for each entry, in nM.

Suppose we examine the molecule COc1cc([C@@H]2c3cc4c(cc3[C@@H](O[C@@H]3O[C@@H]5CO[C@@H](C)O[C@H]5[C@H](O)[C@H]3O)[C@H]3COC(=O)[C@H]23)OCO4)cc(OC)c1O [etoposide] ; what EC50 value has been reported?
144

###

system: HS-PSS; assay: MPNST viability assay (6 days, MTT or AlamarBlue); assay type: cell-based; details: 144 h, cell viability, 6 days of treatment
PROPERTY MEASURED: EC50 (nM)
Answers are plain numbers, in nM.

Endpoint output: EC50 of N[C@H]1CC[C@H](N[C@@H]2C[C@H]2c2ccccc2)CC1 [iadademstat] . Value?
0.046

###

tested on: MPNST-SP-10; assay: MPNST viability assay (6 days, MTT or AlamarBlue); format: cell-based; conditions: 144 h; cell viability, MPNST-SP-10, 6 days of treatment
PROPERTY MEASURED: pEC50
Answers are plain numbers, as −log10 of the molar value.

Sample N[C@H]1CC[C@H](N[C@@H]2C[C@H]2c2ccccc2)CC1 [iadademstat] — what was its pEC50?
10.48

###

system: ST88-14; assay: MPNST viability assay (6 days, MTT or AlamarBlue); assay type: cell-based; conditions: cell viability, ST88-14, 6 days of treatment
PROPERTY MEASURED: EC50 (nM)
Answers are plain numbers, in nM.

API: value(readout= EC50, system= ST88-14, query= COc1cc([C@@H]2c3cc4c(cc3[C@@H](O[C@@H]3O[C@@H]5CO[C@@H](C)O[C@H]5[C@H](O)[C@H]3O)[C@H]3COC(=O)[C@H]23)OCO4)cc(OC)c1O [etoposide] )
788

###

tested on: MPNST-NF1-18b; assay: MPNST viability assay (6 days, MTT or AlamarBlue); type: cell-based; conditions: cell viability, 6 days of treatment
PROPERTY MEASURED: EC50
Answer format: number, then unit.

Please report the recorded EC50 for COc1cc([C@@H]2c3cc4c(cc3[C@@H](O[C@@H]3O[C@@H]5CO[C@@H](C)O[C@H]5[C@H](O)[C@H]3O)[C@H]3COC(=O)[C@H]23)OCO4)cc(OC)c1O [etoposide] .
394 nM

###

test system: 90-8TL; assay: MPNST viability assay (6 days, MTT or AlamarBlue); type: cell-based; conditions: cell viability, 6 days of treatment
PROPERTY MEASURED: pEC50
Answers are plain numbers, as −log10 of the molar value.

If you can, please state the reported pEC50 value of COc1cc([C@@H]2c3cc4c(cc3[C@@H](O[C@@H]3O[C@@H]5CO[C@@H](C)O[C@H]5[C@H](O)[C@H]3O)[C@H]3COC(=O)[C@H]23)OCO4)cc(OC)c1O [etoposide] .
6.78
